test: Multiple component PK study in rat plasma after p.o. GDDP (HPLC-MS); conditions: Sprague-Dawley, rat, plasma, po, 0.8 g/kg
MEASUREMENT NAME: Tmax
I'd appreciate it if you included the unit after the number.

CC(C)=CCC[C@](C)(O[C@@H]1O[C@H](CO)[C@@H](O)[C@H](O)[C@H]1O)[C@H]1CC[C@]2(C)[C@@H]1[C@H](O)C[C@@H]1[C@@]3(C)CC[C@H](O[C@@H]4O[C@H](CO)[C@@H](O)[C@H](O)[C@H]4O[C@@H]4O[C@H](CO)[C@@H](O)[C@H](O)[C@H]4O)C(C)(C)[C@@H]3CC[C@]12C [Rd, ginsenoside Rd] = 2.25 h

Here's the next entry for you.
Query: Tmax; subject: Cc1cccc2c3c(ccc12)C1=C(C(=O)C3=O)[C@@H](C)CO1 [DHTS I, dihydrotanshinone I]
0.83 h
